Kindly supply the reported % Total Binding relative to Control I values for the records listed here.
TARGET_SYSTEM: T1, human PRLR on cells (endogenous on T47D, T47D#11, MCF7); introduced in HEK293/hPRLR/STAT5-Luc, 293/hPRLR, … (human, UniProt P16471 25-622)
T1 construct: no tag is stated for these lines; also called prolactin receptor
T1 sequence: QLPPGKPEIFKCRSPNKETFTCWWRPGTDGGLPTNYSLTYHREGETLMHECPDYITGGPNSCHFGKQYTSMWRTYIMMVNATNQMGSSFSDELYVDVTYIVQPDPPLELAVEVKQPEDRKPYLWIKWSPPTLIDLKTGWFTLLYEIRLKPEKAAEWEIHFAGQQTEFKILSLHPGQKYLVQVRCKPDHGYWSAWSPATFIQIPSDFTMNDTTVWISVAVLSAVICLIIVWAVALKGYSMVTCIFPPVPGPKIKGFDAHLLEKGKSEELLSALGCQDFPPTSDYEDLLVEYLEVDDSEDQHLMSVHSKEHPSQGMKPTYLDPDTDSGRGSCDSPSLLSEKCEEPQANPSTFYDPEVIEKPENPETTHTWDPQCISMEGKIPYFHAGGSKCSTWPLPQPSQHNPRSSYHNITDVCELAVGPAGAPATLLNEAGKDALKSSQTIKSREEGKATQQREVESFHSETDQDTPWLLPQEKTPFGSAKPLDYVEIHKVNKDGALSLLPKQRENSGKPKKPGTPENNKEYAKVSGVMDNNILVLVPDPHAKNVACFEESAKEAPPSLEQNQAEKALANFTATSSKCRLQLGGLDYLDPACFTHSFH
TEST_NAME: imaging of alexa488 intensity on T47D cells
Put down the number, then write its unit next to it.

A selection of reference data follows.
BINDER: H1H6959N2 (antibody, human IgG1, V domains shown, also called H2M6959N2) VH: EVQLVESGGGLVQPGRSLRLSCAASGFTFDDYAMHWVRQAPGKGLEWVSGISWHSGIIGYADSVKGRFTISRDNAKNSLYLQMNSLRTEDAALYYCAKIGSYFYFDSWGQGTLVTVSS VL: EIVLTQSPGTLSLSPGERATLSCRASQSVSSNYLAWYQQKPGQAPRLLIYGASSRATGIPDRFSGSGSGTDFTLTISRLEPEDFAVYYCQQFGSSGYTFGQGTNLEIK
% Total Binding relative to Control I: 2%
//
BINDER: H1H6795P (antibody, human IgG1, V domains shown, human IgG1 Fc (H1H)) VH: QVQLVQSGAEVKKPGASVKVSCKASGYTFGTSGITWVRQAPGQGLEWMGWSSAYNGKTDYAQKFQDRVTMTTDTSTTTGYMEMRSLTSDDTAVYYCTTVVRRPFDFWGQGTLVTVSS VL: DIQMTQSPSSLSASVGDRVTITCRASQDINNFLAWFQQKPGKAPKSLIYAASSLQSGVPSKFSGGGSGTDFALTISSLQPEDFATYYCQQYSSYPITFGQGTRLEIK
% Total Binding relative to Control I: 123%
//
BINDER: H1H6781P (antibody, human IgG1, V domains shown, human IgG1 Fc (H1H)) VH: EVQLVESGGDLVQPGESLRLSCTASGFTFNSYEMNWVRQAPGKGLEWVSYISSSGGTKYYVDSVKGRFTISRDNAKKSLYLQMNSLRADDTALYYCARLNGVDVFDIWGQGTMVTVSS VL: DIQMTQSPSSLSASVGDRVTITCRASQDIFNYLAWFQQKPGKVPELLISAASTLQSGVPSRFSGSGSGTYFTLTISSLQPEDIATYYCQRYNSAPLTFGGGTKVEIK
% Total Binding relative to Control I: 166%
//
BINDER: H1H6976N (antibody, human IgG1, V domains shown, also called H2M6976N) VH: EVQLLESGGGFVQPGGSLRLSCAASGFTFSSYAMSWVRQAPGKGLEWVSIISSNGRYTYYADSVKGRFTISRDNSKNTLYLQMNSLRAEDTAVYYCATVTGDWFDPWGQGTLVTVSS VL: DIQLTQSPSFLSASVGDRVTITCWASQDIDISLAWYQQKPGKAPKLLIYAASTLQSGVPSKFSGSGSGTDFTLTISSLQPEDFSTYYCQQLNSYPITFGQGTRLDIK
% Total Binding relative to Control I: 180%

Next binder, % Total Binding relative to Control I to be filled in.
# input Please look at this binder and report its % Total Binding relative to Control I: H1H6975N (antibody, human IgG1, V domains shown, also called H2M6975N) VH: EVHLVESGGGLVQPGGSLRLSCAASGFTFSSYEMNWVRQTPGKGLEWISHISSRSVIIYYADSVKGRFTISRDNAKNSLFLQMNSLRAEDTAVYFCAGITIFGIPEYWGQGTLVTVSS VL: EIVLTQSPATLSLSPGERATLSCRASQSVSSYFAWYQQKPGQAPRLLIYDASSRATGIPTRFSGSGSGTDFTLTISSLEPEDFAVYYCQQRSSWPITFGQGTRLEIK
# output 226%
